System: LXRa homodimer (NR concentration 270 nM)
protocol.details: PBM binding z-score (relative to random genomic background probes); higher = stronger binding; sequences stand for … in GC…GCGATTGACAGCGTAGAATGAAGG
measure: PBM binding z-score
Lab note: jot down the number only; don't add units.

Q. For the sequence CAGCCTCGGTCAGGGCCAGTATAGGAGGAACGTT , what PBM binding z-score is on record?
A. -0.491

Q. For the sequence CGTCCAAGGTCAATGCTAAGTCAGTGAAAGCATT , what PBM binding z-score is on record?
A. 0.722

Q. For the sequence ACTAGCCGGCCAAGTTTGGGTCACTCAAACAAAG , what PBM binding z-score is on record?
A. -0.183

Q. For the sequence TCTCGGAGGACACAAAAGGTCAGAGCTCGACATC , what PBM binding z-score is on record?
A. 2.83

Q. For the sequence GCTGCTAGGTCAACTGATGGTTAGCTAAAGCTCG , what PBM binding z-score is on record?
A. 0.0508

Q. For the sequence AGTCAAAGTTCATTAGGTAACGTAAGATTCAGCT , what PBM binding z-score is on record?
A. 5.2

Q. For the sequence CGAACTAGGTCAAGGAGAGTGAATCTCCGCACGC , what PBM binding z-score is on record?
A. -0.412

Q. For the sequence GGAACGAGGACAAAGTTGATAGCATCTGTCGACG , what PBM binding z-score is on record?
A. -0.722

Q. For the sequence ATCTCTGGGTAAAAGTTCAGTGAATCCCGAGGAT , what PBM binding z-score is on record?
A. 1.37

Q. For the sequence GCTTGTAAATCAAGGTTAAGAAAGACTAAGCTAA , what PBM binding z-score is on record?
A. 0.223

Q. For the sequence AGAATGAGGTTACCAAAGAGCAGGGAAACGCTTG , what PBM binding z-score is on record?
A. -0.463

Q. For the sequence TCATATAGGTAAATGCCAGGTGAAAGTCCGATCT , what PBM binding z-score is on record?
A. 0.378

Q. For the sequence CATACAGGGTCAGCTAGGACAGAGTAGGGACGGC , what PBM binding z-score is on record?
A. -0.0468

Q. For the sequence AGAACGCGGGCACGCTGAGTTGATAGCAGAGTAG , what PBM binding z-score is on record?
A. -0.326

Q. For the sequence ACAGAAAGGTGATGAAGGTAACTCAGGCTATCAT , what PBM binding z-score is on record?
A. 0.115

Q. For the sequence AGAACGAGGGCAATGAGTTGATCGCACGGGTGGC , what PBM binding z-score is on record?
A. -0.712

Q. For the sequence GCTAGTTGGTCAGTAAAAGGTCACACTCCGGTCG , what PBM binding z-score is on record?
A. 4.97

Q. For the sequence GCATATAGGTAATACATGGTGAAAGTCCGATTGT , what PBM binding z-score is on record?
A. 0.188

Q. For the sequence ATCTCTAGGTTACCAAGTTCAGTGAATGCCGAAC , what PBM binding z-score is on record?
A. 1.86

Q. For the sequence CCTTACGGGTCACTGGCAGGTTATAGCATTTGGA , what PBM binding z-score is on record?
A. 0.174

Q. For the sequence CTACCAAGGTGAACAAGGTCGTTGTTTACTATTC , what PBM binding z-score is on record?
A. -0.0325

Q. For the sequence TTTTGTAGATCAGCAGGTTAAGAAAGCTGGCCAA , what PBM binding z-score is on record?
A. -0.236

Q. For the sequence ATATGTAGGTTATCGGGTAATTCAGTTTGCGCAT , what PBM binding z-score is on record?
A. 1.01

Q. For the sequence TCTTGTAGATCAACAGGAGCTTAAGAAAGATCGA , what PBM binding z-score is on record?
A. -1.18

Q. For the sequence CGTCTAAGTTCAACTAAGGTAACGTAAAGCACGC , what PBM binding z-score is on record?
A. 1.66

Q. For the sequence TCATATAGGTAAAGAGGTGAAAGTCCGTAAGTTA , what PBM binding z-score is on record?
A. 0.378

Q. For the sequence TTACCAAGGTGAAGGGCGTTGATCCCTCTGTAGA , what PBM binding z-score is on record?
A. -0.192

Q. For the sequence GTACCAACGTGAATAGGTCGTTGATGAGTAGGCG , what PBM binding z-score is on record?
A. -0.491

Q. For the sequence ATCTCTAGGTAACCAAGTACAGTGAATGCCGAAC , what PBM binding z-score is on record?
A. 0.247

Q. For the sequence CCGACTGGGGCAGAAAGGTTCCCATACCATCCGG , what PBM binding z-score is on record?
A. -0.526

Q. For the sequence ATCGAAAGGTCGAAGGTGAGTATTCCCACCCGAA , what PBM binding z-score is on record?
A. 0.077

Q. For the sequence CCTTACGGGTCAAGGGTATAGCACGGGTGGTACG , what PBM binding z-score is on record?
A. -0.107

Q. For the sequence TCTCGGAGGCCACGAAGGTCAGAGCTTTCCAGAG , what PBM binding z-score is on record?
A. -0.257

Q. For the sequence ATCGAAAGGTGGAGGTGAGTATAGAGAAAGGGAA , what PBM binding z-score is on record?
A. -0.00361

Q. For the sequence TCTTGTAGATCAGCAGGTTAAGACAGCTGGCCAA , what PBM binding z-score is on record?
A. -0.459

Q. For the sequence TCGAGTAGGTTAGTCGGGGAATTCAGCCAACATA , what PBM binding z-score is on record?
A. -0.394

Q. For the sequence TCTTGTAGATCAATAGGAGGTTAAGAAAGATCGA , what PBM binding z-score is on record?
A. 0.474

Q. For the sequence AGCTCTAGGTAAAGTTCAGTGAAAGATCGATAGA , what PBM binding z-score is on record?
A. 0.886

Q. For the sequence GGAACGAGGGCATTCGAATTGATAGCATGGCGAT , what PBM binding z-score is on record?
A. -0.335

Q. For the sequence CCTCGGAGGACAGAATGTCAGAGCTGTCCGCTTT , what PBM binding z-score is on record?
A. -0.713

Q. For the sequence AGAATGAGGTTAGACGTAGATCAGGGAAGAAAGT , what PBM binding z-score is on record?
A. 0.0351

Q. For the sequence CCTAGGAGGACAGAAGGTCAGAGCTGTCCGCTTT , what PBM binding z-score is on record?
A. 0.0675

Q. For the sequence CTTCCAAGGTCAAAGGTCAGTGAAGAGATGACGG , what PBM binding z-score is on record?
A. 4.94

Q. For the sequence GGAACGAGGGCATTCGAGTTGATAGCTTGGCGAT , what PBM binding z-score is on record?
A. -0.471

Q. For the sequence ATATGTAGGTTACATCCGGGTCCTTCAGGCTATG , what PBM binding z-score is on record?
A. 0.152

Q. For the sequence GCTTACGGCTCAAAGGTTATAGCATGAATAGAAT , what PBM binding z-score is on record?
A. 0.0597

Q. For the sequence ATCGGAAGGTCGACGAGGTGAGTATACACCGTTT , what PBM binding z-score is on record?
A. -0.358

Q. For the sequence CCTACTGGGCCACGAAAGGTCAGTGATTCAGTGA , what PBM binding z-score is on record?
A. 1.41

Q. For the sequence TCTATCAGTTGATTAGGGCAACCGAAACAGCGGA , what PBM binding z-score is on record?
A. -0.239

Q. For the sequence TATCCTAGGTCATTCAGGGGCCAGTATAGAAAGC , what PBM binding z-score is on record?
A. 4.76

Q. For the sequence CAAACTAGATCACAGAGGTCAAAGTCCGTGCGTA , what PBM binding z-score is on record?
A. 6.08
